- Measurement target: Nuclear receptor coactivator 2 (Homo sapiens) (UniProt Q15596)
- Sequence (Q15596 whole entry, looked up): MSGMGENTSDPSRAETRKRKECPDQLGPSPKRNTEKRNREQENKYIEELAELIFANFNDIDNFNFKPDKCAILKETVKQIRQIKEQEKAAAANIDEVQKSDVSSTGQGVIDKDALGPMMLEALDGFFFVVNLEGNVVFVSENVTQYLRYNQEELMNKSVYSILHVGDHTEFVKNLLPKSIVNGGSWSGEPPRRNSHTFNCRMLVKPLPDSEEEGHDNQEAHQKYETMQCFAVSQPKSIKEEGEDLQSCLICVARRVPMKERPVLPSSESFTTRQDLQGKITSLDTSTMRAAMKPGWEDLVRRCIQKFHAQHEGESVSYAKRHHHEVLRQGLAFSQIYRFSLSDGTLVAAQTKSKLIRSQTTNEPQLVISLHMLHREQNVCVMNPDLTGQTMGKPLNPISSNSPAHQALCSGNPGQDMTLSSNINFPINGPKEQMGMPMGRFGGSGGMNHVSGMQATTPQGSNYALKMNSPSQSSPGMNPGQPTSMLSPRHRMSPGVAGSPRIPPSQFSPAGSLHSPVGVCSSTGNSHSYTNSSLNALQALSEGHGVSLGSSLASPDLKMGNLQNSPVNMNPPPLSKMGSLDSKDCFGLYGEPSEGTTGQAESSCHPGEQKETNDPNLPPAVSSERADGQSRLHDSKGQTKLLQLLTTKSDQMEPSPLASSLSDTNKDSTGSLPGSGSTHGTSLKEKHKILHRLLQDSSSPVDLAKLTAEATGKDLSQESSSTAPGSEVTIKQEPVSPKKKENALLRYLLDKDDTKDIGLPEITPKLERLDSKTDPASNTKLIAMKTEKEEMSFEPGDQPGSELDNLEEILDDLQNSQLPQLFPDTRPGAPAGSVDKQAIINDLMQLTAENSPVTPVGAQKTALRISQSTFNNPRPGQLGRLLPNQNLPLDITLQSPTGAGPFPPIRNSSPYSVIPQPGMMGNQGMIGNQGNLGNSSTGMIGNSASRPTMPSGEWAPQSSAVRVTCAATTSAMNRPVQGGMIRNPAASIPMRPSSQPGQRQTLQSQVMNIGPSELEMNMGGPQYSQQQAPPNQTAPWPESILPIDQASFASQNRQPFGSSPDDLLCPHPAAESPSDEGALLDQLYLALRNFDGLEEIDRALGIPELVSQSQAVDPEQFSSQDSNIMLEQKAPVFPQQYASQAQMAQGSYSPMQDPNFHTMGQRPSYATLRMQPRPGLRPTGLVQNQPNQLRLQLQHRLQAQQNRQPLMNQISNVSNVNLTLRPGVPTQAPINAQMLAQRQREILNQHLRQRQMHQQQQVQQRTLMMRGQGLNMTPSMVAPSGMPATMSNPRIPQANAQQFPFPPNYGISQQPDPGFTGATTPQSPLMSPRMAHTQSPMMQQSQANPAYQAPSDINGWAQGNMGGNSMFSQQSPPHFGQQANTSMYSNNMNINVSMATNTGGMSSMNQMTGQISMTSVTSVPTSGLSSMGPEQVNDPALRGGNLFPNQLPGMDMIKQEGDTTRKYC
- Run description: SRC2 coactivator transcriptional activity inhibitors, confirmation, cell-based, luminescence, HEK293, triplicate (AID 652008);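 also: 0% = DMSO-treated cells and 100% = Gossypol at 36 µM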
- Applied conditions: HEK293 GAL4-SRC2 luciferase reporter, at 8.9 µM, stronger effect = higher value
The source made the active and inactive calls.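 The calls were made as follows: active = mean inhibition above 46.5%, the solvent-only control mean plus 3 SD; inactive = the rest.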
Please provide measured inhibition for the entries that follow.

Previously resolved entries follow.
CCC(C)(O)C(=O)OC1C(=O)OC2CC3C(C)=CC(=O)C(O)C3(C)C3C4(O)OCC23C1C(C)C4O (stereo not given); 74.8% (active)
O=C1C(=O)c2ccccc2-c2ccccc21; 98.8% (active)
CC(=O)OC1CC(OC2C(O)CC(OC3C(O)CC(OC4CCC5(C)C(CCC6C5CC(O)C5(C)C(C7=CC(=O)OC7)CCC65O)C4)OC3C)OC2C)OC(C)C1OC1OC(CO)C(O)C(O)C1O (stereo not given); 28.8% (inactive)
COC(=O)C1=C(c2ccc(-c3ccccc3)c(F)c2)C[C@@H]2CC[C@H]1N2C(=O)NCc1ccc(F)cc1; 2.93% (inactive)
Cc1ccc(N2C(=O)NC(=O)C(CCc3ccccn3)(Cc3ccc(F)cc3)C2=O)cc1 (stereo not given); 7.3% (inactive)
C[C@H]1C[C@@H](C)C(=O)[C@@H]([C@H](O)CC2CC(=O)NC(=O)C2)C1; 62.9% (active)
C[C@]12CCC3C(CCC4=CC(O)CC[C@@]43/C=N/O)C1(O)CCC2C1=CC(=O)OC1 (stereo not given in full); 11.4% (inactive)
CC(=O)OC1CC(OC2C(O)CC(OC3C(O)CC(OC4CCC5(C)C(CCC6C5CCC5(C)C(C7=CC(=O)OC7)C(O)CC65O)C4)OC3C)OC2C)OC(C)C1OC1OC(CO)C(O)C(O)C1O (stereo not given); 13.5% (inactive)
Cc1ccccc1CN1Cc2cnnn2-c2ccccc2C1C#N (stereo not given); 48.8% (active)
CC(=O)OCC12CC(OC(=O)CC(C)C)C(C)=CC1OC1C(O)C(OC(C)=O)C2(C)C12CO2 (stereo not given); 75.4% (active)

Consider the following items and state reported inhibition for each.
1. Nc1cccc(SC2CC(=O)N(c3ccc(Cl)cc3C(=O)c3ccccc3)C2=O)c1 (stereo not given)
2. O=C1NC2C(=CC(O)C(O)C2O)c2cc3c(cc21)OCO3 (stereo not given)

Reply:
1. 17.3% (inactive)
2. 76.2% (active)

Okay, here is my list. What is inhibition for each of these?
1. CC(=O)OC1C(O)C(C)OC(OC2C(OC(=O)C3CCC4C(C3)OC3(CC(OC(=O)/C=C/c5ccccc5)C(C)CO3)C43CO3)OC(C)C(O)C2OC(C)=O)C1O (stereo not given)
2. COc1ccc(-n2nnnc2C(c2cc3ccccc3o2)N2CCC(n3c(=O)[nH]c4ccccc43)CC2)cc1 (stereo not given)
3. COc1ccc2c(c1)[nH]c1c(C)nccc12
4. NC(=S)c1cn(C2OC(CO)C(O)C2O)c2ncnc(N)c12 (stereo not given)

Reply:
["75.2% (active)", "22.9% (inactive)", "42.9% (inactive)", "71.6% (active)"]

Please state inhibition for every compound in the list that follows.
1. CN(Cc1cccc(-c2cccnc2)c1)C(=O)Oc1ccc([N+](=O)[O-])cc1
2. Cc1nc2c(=O)n(C)c(=O)nc-2n(C)n1
3. COc1ccc(CN2Cc3cnnn3-c3ccccc3C2C#N)cc1 (stereo not given)
4. CN1C(=O)C[N+]([O-])=C(c2ccccc2)c2cc(Cl)ccc21
5. O=c1[nH]c(O)c(N=Nc2ccc3c(c2)OCCO3)c(=O)[nH]1
6. CC1OC(OC2C=C3CCC4C(CCC5(C)C(c6ccc(=O)oc6)CCC45O)C3(C)CC2)C(O)C(OC2OC(CO)C(O)C(O)C2O)C1O (stereo not given)
7. Oc1ccc(-[n+]2c(-c3ccccc3)cc(-c3ccccc3)cc2-c2ccccc2)cc1
8. C=C1C(=O)O[C@@H]2C[C@@H](C)[C@@H]3C=CC(=O)[C@@]3(C)[C@@H](O)[C@H]12

Reply:
["49.7% (active)", "77.8% (active)", "49.8% (active)", "0.34% (inactive)", "63.6% (active)", "48.1% (active)", "33.1% (inactive)", "93.7% (active)"]

Task item: Can you share its inhibition? I mean this compound: `O=C1CN=C(c2ccc[nH]2)c2cc(Cl)ccc2N1`
Reply: 44% (inactive)
